Biological target: RVFV nucleocapsid N protein (Rift valley fever virus)
Sequence (P21700 whole entry, looked up): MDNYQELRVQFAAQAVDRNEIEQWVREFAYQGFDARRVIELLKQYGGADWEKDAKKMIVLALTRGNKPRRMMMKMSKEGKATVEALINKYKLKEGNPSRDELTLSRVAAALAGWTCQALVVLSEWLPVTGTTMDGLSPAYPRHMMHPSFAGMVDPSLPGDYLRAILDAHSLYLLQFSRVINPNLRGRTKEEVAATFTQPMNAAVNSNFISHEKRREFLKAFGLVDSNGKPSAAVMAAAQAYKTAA
Assay: biochemical
Assay type: binding
pIC50: −log10 of the molar value. Structures can show the parent of a compound that is named as a salt.
measure name: pIC50

* CCN(CC)CCCC(C)Nc1c2ccc(Cl)cc2nc2ccc(OC)cc12 (stereo not shown) [quinacrine dihydrochloride] | 3.79

---

Biological target: RVFV nucleocapsid N protein (Rift valley fever virus)
Format: binding
Structures can show the parent of a compound that is named as a salt.
measure name: Percent Inhibition HTS (%)

- CC[C@@]1(O)C(=O)OCc2c1cc1n(c2=O)Cc2cc3c(CN(C)C)c(O)ccc3nc2-1: 85.9
- Cc1ccc(C(=O)Nc2ccc(S(=O)(=O)O)c3cc(S(=O)(=O)O)cc(S(=O)(=O)O)c23)cc1NC(=O)c1cccc(NC(=O)Nc2cccc(C(=O)Nc3cc(C(=O)Nc4ccc(S(=O)(=O)O)c5cc(S(=O)(=O)O)cc(S(=O)(=O)O)c45)ccc3C)c2)c1 [suramin sodium salt]: 93.3
- Br.CN=c1nc(-c2ccccc2)n(-c2ccccc2)s1: 50.3
- CCN(CC)CCCC(C)Nc1c2ccc(Cl)cc2nc2ccc(OC)cc12 (stereo not shown) [quinacrine dihydrochloride]: 65.7
